# System Tested: T1, Brn2 DNA-binding domain (BD-Brn2) (Mus musculus (B6), UniProt P31360 336-435)
# T1 sequence: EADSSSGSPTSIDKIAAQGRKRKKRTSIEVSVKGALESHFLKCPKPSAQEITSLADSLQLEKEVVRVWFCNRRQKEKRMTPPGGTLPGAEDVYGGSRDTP
# Protocol Notes: EMSA; 10% glycerol, 20 mM HEPES pH 7.8, 45 mM KCl, 10 mM NaCl, 1 mM EDTA, 1 mM DTT, 0.2 ug/uL BSA, 0.1% NP-40, 50 ng poly-dIdC; 20 ng each GST protein; room temperature 30 min (heterodimers 4 C); 6% PAGE 0.25x TBE
# Conditions: protein: recombinant; tags: GST (N-terminal, pGEX-6P-1); label: 32P-dCTP fill-in of the 5' (dG)5 overhangs of both strands (Methods; control probes are given with GGG)
Quantity: binding result

Below: 8 binders and their reported binding result.
| Binder | Assay Result |
| --- | --- |
| 53 (dsDNA) DNA 1: GGGGGTGCTTGTGACAAATCTGTCAATTTCTGGTGGGGGCCCCCC DNA 2: GGGGGGCCCCCACCAGAAATTGACAGATTTGTCACAAGCACCCCC | no binding |
| 20 (dsDNA) DNA 1: GGGGGCTCAGAGCTAGAAATATTTGTGGAATGGGCCCCC DNA 2: GGGGGCCCATTCCACAAATATTTCTAGCTCTGAGCCCCC | no binding |
| 47 (dsDNA) DNA 1: GGGGGCCACCATCTGTAATGTCCTTGGCACAATAAAACCAACCCCC DNA 2: GGGGGTTGGTTTTATTGTGCCAAGGACATTACAGATGGTGGCCCCC | no binding |
| 22 (dsDNA) DNA 1: GGGGGTACATACAGCAAAATAATCTTTGTAGGGGGGACCCCC DNA 2: GGGGGTCCCCCCTACAAAGATTATTTTGCTGTATGTACCCCC | no binding |
| 37 (dsDNA) DNA 1: GGGGGTTTCATGGTTTGTTAGCTATTCTCTTATCACCCCCC DNA 2: GGGGGGTGATAAGAGAATAGCTAACAAACCATGAAACCCCC | no binding |
| 2 (dsDNA) DNA 1: GGGGGGCCATAGAATTGTACTTCTGTCACCAGTTTTATTTTTTTATTTCCCCC DNA 2: GGGGGAAATAAAAAAATAAAACTGGTGACAGAAGTACAATTCTATGGCCCCCC | no binding |
| 30 (dsDNA) DNA 1: GGGGGTGTCTTCTCCCTAATGATTGTTGTATGACCCCCC DNA 2: GGGGGGTCATACAACAATCATTAGGGAGAAGACACCCCC | binds |
| 17 (dsDNA) DNA 1: GGGGGTTTAAAGATTTGTTTCTTTATTATATGTAAGTACCCCC DNA 2: GGGGGTACTTACATATAATAAAGAAACAAATCTTTAAACCCCC | binds |

What measured binding result goes with 14 (dsDNA) DNA 1: GGGGGGTCAGGATTTTGTGTGTGGATTAACTGTATCATCCCCC DNA 2: GGGGGATGATACAGTTAATCCACACACAAAATCCTGACCCCCC ?
no binding

The reported measurements were obtained from paper PMC3713010.
